- target or test system: c-Src SH2;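 further: peptide library displayed on the E. coli surface as eCPX fusions, selected cells deep-sequenced, score is each peptide's frequency after selection divided by its frequency in the input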
- method notes: SH2 binding enrichment of the phosphorylated peptide, bacterial display (enrichment ratio); higher = better substrate or ligand; peptides without Tyr show the background
endpoint label: SH2 binding enrichment
Could you keep your reply to the number by itself?

// SH2 binding enrichment value for HNELFYEAAEH [VANGL1_Y345_E347A_YF] : 0.749

// SH2 binding enrichment value for PGGKIYISPLK [RB1_Y805_N803K] : 0.776

// SH2 binding enrichment value for QHVPDYRQNGY [PCDHGA1_Y890_V894G] : 0.486

// SH2 binding enrichment value for RSHRSYSCQVM [IGLL1_Y192_R189H] : 1.16

// SH2 binding enrichment value for FAFQLYDLDRD [CHP2_Y123_YF] : 0.923

// SH2 binding enrichment value for DDDPEYRKFLE [UPF3B_Y160] : 0.547

Continuing:
// SH2 binding enrichment value for VAVVQYSGTGQ [COL6A1_Y878] : 0.451

// SH2 binding enrichment value for RRMLQYLTVND [PPFIBP2_Y663] : 0.51

// SH2 binding enrichment value for SRGSSYSSIPK [FLNC_Y2625] : 1.02

// SH2 binding enrichment value for IYRASYYRRGD [LTK_Y676] : 0.439

// SH2 binding enrichment value for GEHSIYSTVNN [CD55_Y266_C267S] : 0.718
